Listed binders paired with reported EC50
Target: T1, human CX3CR1 (human, UniProt P49238 1-355)
T1 construct: Overexpressed on CHO K1, Ba/F3 or HEK293T cells; also called huCX3CR1; hCX3CR1
T1 sequence: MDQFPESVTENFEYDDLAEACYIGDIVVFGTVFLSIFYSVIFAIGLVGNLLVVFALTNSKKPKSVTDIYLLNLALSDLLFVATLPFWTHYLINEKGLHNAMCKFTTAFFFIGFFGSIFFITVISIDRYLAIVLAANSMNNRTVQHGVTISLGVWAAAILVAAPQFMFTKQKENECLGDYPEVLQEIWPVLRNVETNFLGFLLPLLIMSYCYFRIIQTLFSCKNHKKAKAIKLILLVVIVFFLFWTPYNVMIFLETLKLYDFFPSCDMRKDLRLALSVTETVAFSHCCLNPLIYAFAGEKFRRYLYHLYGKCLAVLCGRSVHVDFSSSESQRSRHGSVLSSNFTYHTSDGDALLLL
Assay: flow cytometry on transiently transfected HEK293T cells, human CX3CR1 WT
Procedure: After washing, serial dilutions of multivalent ISVD construct (starting from 250 nM, 3-fold dilution, 11 points, diluted in assay buffer), were added and incubated for 4 hours at 4° C. Binding was performed in the presence of 30 uM HSA (Sigma-Aldrich, Cat. No. A8763). Plates were then washed 3 times and cells were incubated with an anti-VHH mouse antibody (3300-fold diluted in assay buffer) for 30 minutes at 4′° C. […] Cell suspensions were analyzed with iQue Screener PLUS (Intellicyt). […]
Your answer should be a plain number; it is taken to be in nM.

Examples with their reported EC50 follow.
binder: A041600035 (VHH, Trivalent ISVD construct (two anti-CX3CR1 ISVDs, one anti-albumin ISVD), C-terminal alanine included in the entry; also called 54A12_SO (E1D)-9GS-54A12_SO-9GS-ALB23002-A) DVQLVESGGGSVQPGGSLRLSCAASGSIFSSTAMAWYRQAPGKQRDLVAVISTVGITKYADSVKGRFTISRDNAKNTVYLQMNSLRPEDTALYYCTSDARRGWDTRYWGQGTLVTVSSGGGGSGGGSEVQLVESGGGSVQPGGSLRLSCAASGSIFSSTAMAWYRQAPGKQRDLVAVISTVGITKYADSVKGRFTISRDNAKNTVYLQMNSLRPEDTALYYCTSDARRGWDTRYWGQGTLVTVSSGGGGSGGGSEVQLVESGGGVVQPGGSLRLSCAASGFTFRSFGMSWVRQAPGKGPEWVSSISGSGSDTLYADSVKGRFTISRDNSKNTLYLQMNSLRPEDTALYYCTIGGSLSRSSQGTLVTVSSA
EC50 [nM]: 0.13

binder: A041600025 (VHH, Trivalent ISVD construct (two anti-CX3CR1 ISVDs, one anti-albumin ISVD), C-terminal alanine included in the entry; also called 54A12_SO (E1D)-9GS-ALB23002-9GS-54A12_SO-A) DVQLVESGGGSVQPGGSLRLSCAASGSIFSSTAMAWYRQAPGKQRDLVAVISTVGITKYADSVKGRFTISRDNAKNTVYLQMNSLRPEDTALYYCTSDARRGWDTRYWGQGTLVTVSSGGGGSGGGSEVQLVESGGGVVQPGGSLRLSCAASGFTFRSFGMSWVRQAPGKGPEWVSSISGSGSDTLYADSVKGRFTISRDNSKNTLYLQMNSLRPEDTALYYCTIGGSLSRSSQGTLVTVSSGGGGSGGGSEVQLVESGGGSVQPGGSLRLSCAASGSIFSSTAMAWYRQAPGKQRDLVAVISTVGITKYADSVKGRFTISRDNAKNTVYLQMNSLRPEDTALYYCTSDARRGWDTRYWGQGTLVTVSSA
EC50 [nM]: 0.065

## Input Could you share which EC50 value was measured for A041600085 (VHH, also called 307-9GS-ALB23002-9GS-307 (D1E)-A) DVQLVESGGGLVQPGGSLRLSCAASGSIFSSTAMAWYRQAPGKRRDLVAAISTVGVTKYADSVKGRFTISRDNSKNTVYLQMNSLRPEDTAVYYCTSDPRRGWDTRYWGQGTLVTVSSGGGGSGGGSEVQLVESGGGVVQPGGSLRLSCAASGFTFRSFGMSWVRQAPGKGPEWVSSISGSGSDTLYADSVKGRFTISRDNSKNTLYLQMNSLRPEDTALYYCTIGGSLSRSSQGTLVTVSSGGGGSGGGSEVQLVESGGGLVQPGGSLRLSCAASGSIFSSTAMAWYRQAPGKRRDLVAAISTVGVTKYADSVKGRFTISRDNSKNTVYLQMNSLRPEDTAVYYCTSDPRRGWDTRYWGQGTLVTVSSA ?
## Output 0.12
